Kindly state GI50 for each of the entries shown.
- System: SF-295
- testDescription: NCI tumour cell line growth inhibition, 48 h
Active and inactive are the calls of the source. No stated cut-off is given here; in the data, active = GI50 up to about 1.1 µM and inactive = higher. Where a SMILES comes first, the peptide text is derived from it. [ ]: non-standard residue; d: D form. The star is where a group is joined. NMeF = CN[C@@H](Cc1ccccc1)C(=O)O; NMeV = CN[C@H](C(=O)O)C(C)C; Boc = CC(C)(C)OC(=O)*; OBn = c1ccc(CO*)cc1

Guide cases for GI50, answers given:
# molecule, GI50
measured = [
    ("Cc1ccc(S(=O)(=O)NNC(=O)c2sc(-c3nc(C)c(C(=O)NNS(=O)(=O)c4ccc(C)cc4)s3)nc2C)cc1", "> 100 µM (inactive)"),
    ("CC1=NN(c2nc(N)nc(/C(C#N)=C/c3cccn3-c3cc(Cl)cc(Cl)c3)n2)C(C)(C)C1", "> 100 µM (inactive)"),
    ("CC(C)[C@@H](C(=O)N1CCC[C@H]1C(=O)OCc1ccccc1)N(C)C(=O)[C@H](C(C)C)N(C)C(=O)[C@H](Cc1ccccc1)N(C)C(=O)[C@H](NC(=O)OC(C)(C)C)C(C)C (Boc-[dV][NMeF][NMeV][NMeV]P-OBn)", "> 50 µM (inactive)"),
]

Need GI50 for each of these molecules.
1. NC(=O)Cc1ncn(-c2ccccc2)n1
2. O=C1CNCCCN2CCN(CCCNCC(=O)Nc3ccc(cc3)S(=O)(=O)c3ccc(cc3)NC(=O)CNCCCN3CCN(CCCNCC(=O)Nc4ccc(cc4)S(=O)(=O)c4ccc(cc4)N1)CC3)CC2
3. CC1(C)CCCCCCC2CC2CCCCCC(C)(C)C1=O (centres undefined)
4. O/N=C1\SC(=N\O)/C(=N/O)S\C1=N/O
5. CN(C)CCN(C)CCC(=O)/C=C/c1ccccc1

Marked response:
1: > 100 µM (inactive); 2: 20.5 µM (inactive); 3: > 100 µM (inactive); 4: > 100 µM (inactive); 5: > 40.4 µM (inactive)

Exam item: Give GI50 for this entry on SF-295: CC1(C)N[PH]2(Nc3ccccc3O2)OC1=O
Marked response: 24.7 µM (inactive)

---

- Tested on: IGROV-1
- testDescription: NCI tumour cell line growth inhibition, 48 h
Calls of active or inactive are those of the source. No stated cut-off is given here; in the data, active = GI50 up to about 1.1 µM and inactive = higher.
readoutName: GI50

# compound, studyTarget, GI50
measured = [
    ("Cc1ccc2nc3c(Cl)cc(=O)cc-3sc2c1", "IGROV-1", "19.4 µM (inactive)"),
    ("CCOC(=O)c1ccc(-n2c(SCC)nc3sc(C)c(C)c3c2=O)cc1", "IGROV-1", "> 100 µM (inactive)"),
    ("C/C(=N\\NC(=O)CC(=O)Nc1ccc(C)cc1)c1cc2ccccc2oc1=O", "IGROV-1", "> 100 µM (inactive)"),
    ("CC(=O)OCc1ccc2oc(=O)c(C(=O)Oc3ccccc3)cc2c1", "IGROV-1", "> 100 µM (inactive)"),
    ("COC(=O)CC(C#N)(OP1(=O)OC(c2ccccc2)C(C)N1C)c1ccccc1 (stereo unspecified)", "IGROV-1", "34.4 µM (inactive)"),
]

// below: GI50 requested for another compound
Exam item: Give GI50 for this entry on IGROV-1: Nc1ccc(-c2nc3ccccc3s2)cc1I
Marked response: 0.0107 µM (active)
